Attribution: patent EP0513997A1

System: rabbit platelets
Test: In vitro rabbit platelet aggregation induced by ADP, collagen, AA or A 23187 Ca ionophor
Type: cell-based
Settings: Oryctolagus cuniculus, Platelet, read-out: IC50 rabbit platelet aggregation, Collagen
pIC50: −log10 of the molar value.
pIC50 reference
Readout Kind: pIC50

Molecule	Experimental Value
COc1ccc(Cc2nccc3cc(OC)c(OC)cc23)cc1OC	3.57
O=C(O)c1ccccc1O [Salicylic acid, salicylic acid, reference compound]	2.89

----------
System: rabbit platelets
Assay: In vitro rabbit platelet aggregation induced by ADP, collagen, AA or A 23187 Ca ionophor
Type: cell-based
Details: Oryctolagus cuniculus, Platelet, read-out: Antiaggregatory Effect Collagen
pIC50: −log10 of the molar value.
Readout Kind: pIC50

Given Smiles	Experimental Value
COc1ccc(Cc2nccc3cc(OC)c(OC)cc23)cc1OC	3.57
